Listing: mass density of selected molecules
Conditions: 351.15 K; 101.33 kPa; Liquid; Vibrating tube method
Respond with the bare value in kg/m3.

CCn1cc[n+](C)c1.COS(=O)(=O)[O-] [1-ethyl-3-methylimidazolium methylsulfate]
1250.58
CCCCCCOS(=O)(=O)[O-].CC[n+]1ccn(C)c1 [3-ethyl-1-methyl-1H-imidazolium hexyl sulfate]
1095.75
CCCCOS(=O)(=O)[O-].CC[n+]1ccn(C)c1 [3-ethyl-1-methylimidazolium butyl sulfate]
1141.21
CCCCCCCCOS(=O)(=O)[O-].CCn1cc[n+](C)c1 [1-ethyl-3-methylimidazolium octyl sulfate]
1061.05

Would you kindly look at the next entry?
CCn1cc[n+](C)c1.O=S(=O)([O-])O [1-ethyl-3-methylimidazolium hydrogen sulfate] has a reported mass density of 1333.75

---

Listing: mass density of selected compounds
Settings: 337.15 K; 101.33 kPa; Liquid; Vibrating tube method
Respond with the bare value in kg/m3.

Here is how some compounds turned out for mass density.
CCn1cc[n+](C)c1.COS(=O)(=O)[O-] [1-ethyl-3-methylimidazolium methylsulfate]
1259.76
CCCCCCCCOS(=O)(=O)[O-].CCn1cc[n+](C)c1 [1-ethyl-3-methylimidazolium octyl sulfate]
1070
CCn1cc[n+](C)c1.O=S(=O)([O-])O [1-ethyl-3-methylimidazolium hydrogen sulfate]
1342.16
CCCCCCOS(=O)(=O)[O-].CC[n+]1ccn(C)c1 [3-ethyl-1-methyl-1H-imidazolium hexyl sulfate]
1104.69

CCCCOS(=O)(=O)[O-].CC[n+]1ccn(C)c1 [3-ethyl-1-methylimidazolium butyl sulfate] has a reported mass density of 1150.25

---

Conditions: 323.15 K; 101.33 kPa; Liquid; Concentric cylinders viscometry
quantityMeasured: log10(viscosity) (log10 of the value in mPa·s)
Log scale reminder: viscosity in mPa·s, then log10 taken.

Here is how some molecules turned out for log10(viscosity).
CCCCCCCCOS(=O)(=O)[O-].CCn1cc[n+](C)c1 [1-ethyl-3-methylimidazolium octyl sulfate]
2.16
CCCCCCOS(=O)(=O)[O-].CC[n+]1ccn(C)c1 [3-ethyl-1-methyl-1H-imidazolium hexyl sulfate]
1.93
CCn1cc[n+](C)c1.COS(=O)(=O)[O-] [1-ethyl-3-methylimidazolium methylsulfate]
1.48
CCCCOS(=O)(=O)[O-].CC[n+]1ccn(C)c1 [3-ethyl-1-methylimidazolium butyl sulfate]
1.75

Would you kindly look at the next entry?
CCn1cc[n+](C)c1.O=S(=O)([O-])O [1-ethyl-3-methylimidazolium hydrogen sulfate] has a reported log10(viscosity) of 2.55

---

Details: 320.15 K; 101.33 kPa; Liquid; Vibrating tube method
quantityMeasured: mass density (kg/m3)
Respond with the bare value in kg/m3.

Here is how some molecules turned out for mass density.
CCn1cc[n+](C)c1.COS(=O)(=O)[O-] [1-ethyl-3-methylimidazolium methylsulfate]
1271.05
CCCCCCCCOS(=O)(=O)[O-].CCn1cc[n+](C)c1 [1-ethyl-3-methylimidazolium octyl sulfate]
1081.06
CCn1cc[n+](C)c1.O=S(=O)([O-])O [1-ethyl-3-methylimidazolium hydrogen sulfate]
1352.57
CCCCCCOS(=O)(=O)[O-].CC[n+]1ccn(C)c1 [3-ethyl-1-methyl-1H-imidazolium hexyl sulfate]
1115.74

CCCCOS(=O)(=O)[O-].CC[n+]1ccn(C)c1 [3-ethyl-1-methylimidazolium butyl sulfate] has a reported mass density of 1161.4
